Cited source: paper PMC13001094

B1: His6-tagged human BicD2-CTD (aa 715–804) [human] / GST-tagged mouse Nesprin-2 (aa 6123–6421) [mouse] (parent complex)
chain 1: YENEKAMVTETMMKLRNELKALKEDAATFSSLRAMFATRCDEYITQLDEMQRQLAAAEDEKKTLNSLLRMAIQQKLALTQRLELLELDHE
chain 2: RLWQKFLDDYSRFEDWLKSAERTAACPNSSEVLYTNAKEELKRFEAFQRQIHERLTQLELINKQYRRLARENRTDTASKLKQMVHEGNQRWDNLQKRVTAILRRLRYFTNQREEFEGTRESILVWLTEMDLQLTNVEHFSESDAEDKMRQLNGFQQEITLNTNKIDQLIVFGEQLIQKSEPLDAVLIEDELEELHRYCQEVFGRVSRFHRRLTSHTPGLDDEKEASENETDIEDPREIQADSWRKRRESEEPTSPQSLCHLVPPALGHERSGCETPVSVDSIPLEWDHTGDVGGSSSHE

Variants of: B1
assay: GST-pulldown, SDS-PAGE band intensity; n = 3; parent: 1; read off a plot
measurementLabel: ratio to parent

mutation	measurementLabel	result
chain 2 V124A, chain 2 L131A, chain 2 F139A	ratio to parent	~0.04
chain 2 Y197A	ratio to parent	~0.32
chain 2 E128A	ratio to parent	~0.81
chain 2 H138A	ratio to parent	~0.29
